assay: Determination of thermodynamic solubility; format: physicochemical; conditions: 4% dimethyl sulfoxide and 96% corn oil, 25 °C, oil or lipid, thermodynamic from solid; 4% dimethyl sulfoxide, 96% corn oil; read-out: Solubility in a mixture of 4% sulfoxide and 96% corn oil

Molecule: CC(=O)Nc1cccc(-n2c(=O)n(C3CC3)c(=O)c3c(Nc4ccc(I)cc4F)n(C)c(=O)c(C)c32)c1 [Trametinib, reference compound]
Unit of measure: µg/mL
solubility at 24 h: 3000
//
Molecule: Cc1c(=O)n(C)c(Nc2ccc(I)cc2F)c2c(=O)n(C3CC3)c(=O)n(-c3cccc(NC(=O)C4CC4)c3)c12 [Compound of formula 1]
Unit of measure: µg/mL
solubility at 24 h: 7000

###

assay: Determination of thermodynamic solubility; type: physicochemical; settings: water, 25 °C, water, thermodynamic from solid; read-out: Solubility in water
The reader will find reported solubility at 24 h values listed item by item below.

Molecule: Cc1c(=O)n(C)c(Nc2ccc(I)cc2F)c2c(=O)n(C3CC3)c(=O)n(-c3cccc(NC(=O)C4CC4)c3)c12 [Compound of formula 1]
solubility at 24 h: < 1000 µg/mL

Molecule: CC(=O)Nc1cccc(-n2c(=O)n(C3CC3)c(=O)c3c(Nc4ccc(I)cc4F)n(C)c(=O)c(C)c32)c1 [Trametinib, reference compound]
solubility at 24 h: < 1000 µg/mL

###

target: UniProt Q02750
Sequence (Q02750 whole entry): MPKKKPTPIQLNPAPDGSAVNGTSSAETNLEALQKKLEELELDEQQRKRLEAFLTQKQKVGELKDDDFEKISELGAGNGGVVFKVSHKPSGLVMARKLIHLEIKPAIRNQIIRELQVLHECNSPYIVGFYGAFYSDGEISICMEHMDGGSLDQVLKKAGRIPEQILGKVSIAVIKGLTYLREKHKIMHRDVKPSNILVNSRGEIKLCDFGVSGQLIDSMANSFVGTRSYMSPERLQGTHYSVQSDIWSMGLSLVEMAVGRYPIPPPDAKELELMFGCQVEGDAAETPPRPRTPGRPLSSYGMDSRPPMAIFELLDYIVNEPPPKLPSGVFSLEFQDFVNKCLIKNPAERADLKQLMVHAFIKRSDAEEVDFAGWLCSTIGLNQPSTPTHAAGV
Result type: IC50 (nM)

Structure smiles: Cc1c(=O)n(C)c(Nc2ccc(I)cc2F)c2c(=O)n(C3CC3)c(=O)n(-c3cccc(NC(=O)C4CC4)c3)c12
Assay target: UniProt Q02750
Observed measurement: 8.02
